- System: β-galactosidase in CMV-LacZ C2C12 myoblasts
- protocol-notes: CMV-LacZ secondary screen in C2C12 myoblasts (β-Gal stabilizing assay)
- Type: cell-based, mouse
- experimental-conditions: 0.5 uM; CMV-LacZ C2C12 myoblasts
Mark rule met for CMV-LACZ in Myoblasts (β-galactosidase activity relative to DMSO) under 0.9, rule not met if at or over.

{"columns": ["molecule", "assayed-system", "class"],
 "data": [
  ["CCc1c(C)sc(NC(=O)c2ccco2)c1C#N", "β-galactosidase in CMV-LacZ C2C12 myoblasts", "rule not met"]
]}

query: Could you please tell me whether CMV-LACZ in Myoblasts (β-galactosidase activity relative to DMSO) recorded for `O=C(Nc1ccccc1OC(=O)c1ccc(Cl)cc1)c1ccc(Cl)cc1` is less than 0.9?
result: rule not met

query: Could you please tell me whether CMV-LACZ in Myoblasts (β-galactosidase activity relative to DMSO) recorded for `CCc1ccc(S(=O)(=O)NCCOc2cccc3cccnc23)cc1` is less than 0.9?
result: rule not met

query: Could you please tell me whether CMV-LACZ in Myoblasts (β-galactosidase activity relative to DMSO) recorded for Cl.O=C1C2CCCN2C(=O)N1CCCN1CCN(c2cccc(Br)c2)CC1 (stereo not drawn) is less than 0.9?
result: rule met

query: Could you please tell me whether CMV-LACZ in Myoblasts (β-galactosidase activity relative to DMSO) recorded for COc1ccc(CN2CCNC(=O)C2CC(=O)NCCc2c[nH]c3ccccc23)c(OC)c1 (stereo not drawn) is less than 0.9?
result: rule not met

query: Could you please tell me whether CMV-LACZ in Myoblasts (β-galactosidase activity relative to DMSO) recorded for `CC(C)(C)NC(=O)NC(=O)CN1CCN(Cc2ccccc2)CC1` is less than 0.9?
result: rule not met

query: Could you please tell me whether CMV-LACZ in Myoblasts (β-galactosidase activity relative to DMSO) recorded for `c1ccc(-c2cc(-c3nc4ccccc4[nH]3)c3ccccc3n2)cc1` is less than 0.9?
result: rule not met

query: Could you please tell me whether CMV-LACZ in Myoblasts (β-galactosidase activity relative to DMSO) recorded for `CCn1c(=O)c2cc(C(=O)N(C)c3cc(C)ccc3OC)sc2c2ccccc21` is less than 0.9?
result: rule not met

query: Could you please tell me whether CMV-LACZ in Myoblasts (β-galactosidase activity relative to DMSO) recorded for O=C(NCc1ccccc1)C(c1c(F)cccc1Cl)N(C(=O)c1csnn1)C1CC1 (stereo not drawn) is less than 0.9?
result: rule not met

query: Could you please tell me whether CMV-LACZ in Myoblasts (β-galactosidase activity relative to DMSO) recorded for `COc1cc(C=O)ccc1OCC(=O)Nc1ccc2c(c1)OCO2` is less than 0.9?
result: rule met

query: Could you please tell me whether CMV-LACZ in Myoblasts (β-galactosidase activity relative to DMSO) recorded for `Cc1ccsc1CN(C)CC(=O)Nc1ccc([N+](=O)[O-])cc1Cl` is less than 0.9?
result: rule not met

query: Could you please tell me whether CMV-LACZ in Myoblasts (β-galactosidase activity relative to DMSO) recorded for `COc1ccc(NC(=O)C2(N(C(=O)Cn3nnnc3N)c3ccc(OC)cc3)CCCCC2)cc1` is less than 0.9?
result: rule not met

query: Could you please tell me whether CMV-LACZ in Myoblasts (β-galactosidase activity relative to DMSO) recorded for `NC(=O)c1sc2nc3c(cc2c1N)CCC3` is less than 0.9?
result: rule not met

----------
- Tested on: β-galactosidase in CMV-LacZ C2C12 myoblasts
- protocol-notes: CMV-LacZ secondary screen in C2C12 myoblasts (β-Gal stabilizing assay)
- Type: cell-based, mouse
- experimental-conditions: 20 uM; CMV-LacZ C2C12 myoblasts
// N strictly below 1 in CMV-LACZ in Myoblasts (β-galactosidase activity relative to DMSO); Y otherwise

Example cases with answers are listed next.
{"columns": ["compound", "class"],
 "data": [
  ["CSc1ccc(S(=O)(=O)NCc2ccccc2)cc1 [MLS000531177-01]", "Y"],
  ["CC(C)(C)c1ccc(C(=O)OCC(=O)Nc2sc3c(c2C#N)CCC3)cc1 [MLS000392555-01]", "N"],
  ["O=C(CSc1nnc(COc2ccc(Br)cc2)o1)NC1CCCCC1 [MLS001215357-01]", "Y"],
  ["NS(=O)(=O)c1ccc(NC(=O)CN2CCc3ccccc32)cc1 [MLS000850522-01]", "N"],
  ["Nc1ncnc(NCc2ccccc2)c1[N+](=O)[O-] [MLS000698826-01]", "Y"]
]}

Could you now look at the following compound, please?
query: // inclusive: CMV-LACZ in Myoblasts (β-galactosidase activity relative to DMSO) at least 1? input: CN1C(=O)N(CC(=O)N2CCN(S(=O)(=O)c3ccc(Cl)s3)CC2)C(=O)C12CCCCC2 [MLS002162890-01]
result: N

----------
- Test system: β-galactosidase in CMV-LacZ C2C12 myotubes
- protocol-notes: CMV-LacZ secondary screen in C2C12 myotubes (β-Gal stabilizing assay)
- Type: cell-based, mouse
- experimental-conditions: 0.5 uM; C2C12 CMV-LacZ myotubes; fold relative to DMSO
Each entry falls in a class defined on CMV-LACZ in Myotubes, signal relative to DMSO; the bands are low interval: < 0.9; middle interval: ≥ 0.9 and < 1; high interval: ≥ 1

Example cases with answers are listed next.
{"columns": ["molecule", "class"],
 "data": [
  ["CC(C)(C)Nc1nc(-c2ccc3c(c2)CCN3C(=O)C2CC2)cs1", "high interval"],
  ["CCc1c(C)sc(NC(=O)c2ccco2)c1C#N", "middle interval"],
  ["O=C(NCc1ccccc1)C(c1c(F)cccc1Cl)N(C(=O)c1csnn1)C1CC1 (stereo not drawn)", "low interval"],
  ["COc1cccc(CN2CCN(Cc3ccco3)CC2)c1.O=C(O)C(=O)O", "middle interval"],
  ["Cc1cc(C)cc(OCC(=O)N/N=C/c2ccccn2)c1", "middle interval"]
]}

Could you now look at the following molecule, please?
query: State the class of the molecule shown: `O=c1[nH]c(CN2CCCCC2)nc2c1C1(CCCCC1)Cc1ccccc1-2`
result: high interval

----------
- Test system: β-galactosidase in CMV-LacZ C2C12 myoblasts
- protocol-notes: CMV-LacZ secondary screen in C2C12 myoblasts (β-Gal stabilizing assay)
- Assay type: cell-based, mouse
- experimental-conditions: 40 uM; CMV-LacZ C2C12 myoblasts
Each entry falls in a class defined on CMV-LACZ in Myoblasts (β-galactosidase activity relative to DMSO); the bands are lower range (below 0.8), middle range (0.8 to below 1), upper range (1 or more)

Example cases with answers are listed next.
{"columns": ["compound", "class"],
 "data": [
  ["COc1ccc(OC)c(S(=O)(=O)Nc2c(NC3CCCCC3)c3ccccc3oc2=O)c1 [MLS001095705-01]", "upper range"],
  ["O=C(c1ccccc1)N1CCN(S(=O)(=O)c2cccs2)CC1 [MLS001035690-01]", "middle range"],
  ["Cc1cccc(Sc2nc(-c3ccccc3)ccc2C#N)c1 [MLS000325736-01]", "upper range"],
  ["CNC(=O)CSc1nnc(-c2ccc3c(c2)OCO3)n1C [MLS000717689-01]", "middle range"],
  ["O=C(CSc1nnc(COc2ccc(Br)cc2)o1)NC1CCCCC1 [MLS001215357-01]", "lower range"],
  ["Cc1cc([N+](=O)[O-])ccc1NC(=O)C(C)N1CCN(c2ccccn2)CC1 (stereo not drawn) [MLS000764729-01]", "lower range"],
  ["Nc1ncnc(NCc2ccccc2)c1[N+](=O)[O-] [MLS000698826-01]", "upper range"]
]}

Could you now look at the following compound, please?
query: State the class of the compound shown: CCCc1nnc(SCC(=O)NC2CCCC2)n1CCOC [MLS001217935-01]
result: lower range

----------
- System: β-galactosidase in CMV-LacZ C2C12 myoblasts
- protocol-notes: CMV-LacZ secondary screen in C2C12 myoblasts (β-Gal stabilizing assay)
- Type: cell-based, mouse
- experimental-conditions: 5 uM; CMV-LacZ C2C12 myoblasts
property-measured: CMV-LACZ in Myoblasts (β-galactosidase activity relative to DMSO)
The response must contain the number and no unit.

These recorded examples may help you get a feel for the data.
{"columns": ["compound", "reported-value"],
 "data": [
  ["Cc1cccc(Sc2nc(-c3ccccc3)ccc2C#N)c1 [MLS000325736-01]", 0.9758],
  ["CCOC(=O)c1cc(C(=O)OCC)c(=O)[nH]c1SCc1ccccc1 [MLS001008109-01]", 0.9228],
  ["CC(=O)Nc1ccc(-n2c(C)nc(=O)c(-c3ccccc3)c2C)cc1 [MLS000078709-01]", 0.9270],
  ["COc1ccc(C(=O)Nc2ccc(Cl)cn2)cc1Cl [MLS000089748-01]", 1.0665]
]}

query: Would you mind telling me what CMV-LACZ in Myoblasts (β-galactosidase activity relative to DMSO) value was observed for CC1Cc2ccccc2N1C(=O)CSc1nnc(N)s1 (centres unmarked) [MLS001160611-01] ?
result: 1.0117
